Experiment: yeast display, Sf9 membrane polyspecificity reagent, FACS + sequencing; frameworks hold sequencing errors
reported-metric: polyreactivity (PSR sort gate)

Worked examples follow.
| biosequence | polyreactivity (PSR sort gate) |
| --- | --- |
| QVQLVESGGGLVQAGGSLRLSCAASGSTFDRYGMGWYRQAPGKERELVAAISWSGGSTYYADSVKGRFTFSRDNAKNTVYLQMNSLKPEDTAVYYCNAVLYRFAYNYWGQGTQVTVSS | low polyreactivity |
| EVQLVESGGGLFQAGGSLRLSCAASGFTFYRYAMGWYRQAPGKERELVAGITWGGGRTYYADSVKGRFTISRDNAKNTVYFQMNSLKPEATAVYYCAAYYSQDSRRKYDYWGQVTQVTVSS | high polyreactivity |
| QVQLVESGGGLVQAGGSLRLSCAASGRIFTAYAMGWYRQAPGKERELVAAISSGDSTYYADSVKGRFTISRDNAKNTVYLQMNSLKPEDTAVYYCAAEGYLWGQSYNGLNYDSWGQGTQVTVSS | low polyreactivity |
| QVQLVESGGGLVQAGGSLRLSCAASGFTFDSYAMGWYRQAPGKERELVAAITSDGSTYYADSVKGRFTISRDNAKNSVYLQMNSLKPEDTAVYYCAADGISLYATAYDFWGQGTQVTVSS | low polyreactivity |
| QVQLVESGGGLVQAGGTLRLSCADSGLTFAKYAMGWYRQAPGKERQLVAAISRSGGSTYYADSVKGRFTISRDNAKNTVYLQINSLKPEDTARFYCPKSSGTLWITKYDYWGQGTQVTVSS | low polyreactivity |

GET /value?item= QVQLVESGGGLVQAGGSLRLSCAASGSIFISYAMGWYRQAPGKERELVAAINSGGSTNYADSVKGRFTISRDNAKNTVYLQMNSLKPEDTAVYYCAVDGYFFQGPYYYWGQGTQVTVSS &field=polyreactivity (PSR sort gate) returns low polyreactivity

Reported polyreactivity (PSR sort gate) ( QVQLVESGAALVQAGGSLRISCAASGSTLDTNAMGRYRPAPGKERELVAAITFSGGTTYYADSVKGRFTISRDNAKNTVYLQMNSLKPEDTAVYYCAAEIWLEYVGYDYWGQGTQVTVSS ) = high polyreactivity

Form field polyreactivity (PSR sort gate), entry QVQLEESGGGLVQAGGSLRLSCAASGFTFGVYPMGWYRQATGKEREFVADITYSGGSTYYADSVKGRFTISRDNAKNTVYLHMNSLKPEDTAVYYCAAGYVYTWYGEYVVGYDYWGQGTQVTVSS : high polyreactivity

Field polyreactivity (PSR sort gate) (entry QVQLVESGGGLVQAGGRLRLSCAASGIIFKYNAMGWYIQAPGKEREFVAAITGSGGSTYYADSVKGRFTISRDNAKNTVYLQMNSLKPEDTAVYYCARPQWRDWYGYWGQGTQVTVSS ) reads low polyreactivity

polyreactivity (PSR sort gate) reading for QVQLVESGGGLVQAGGSLRLSCAASGSTLSVNAMGWYRPAPGKERELVAAIDFDGGDTYYADSVKGRFTISRDNAKNNVYLQMNSLKPEDTAVYYCAADIGGQYDYLADDYWGQGTQVTVSS : low polyreactivity

Sure, the documented polyreactivity (PSR sort gate) for QVQLVESGGGLVQAGGSLRLSCAASGSIFGYYTMGWYRQAPGKERELVAGIDFITTSTYYADSVKGRFTISRDNAKNTVYLQMNSLKPEDTAVYYCNADPFTGYDYWGQGTQVTVSS is low polyreactivity

Hello, the source for this data is the nanobody polyreactivity screen of Harvey et al. (2022), in case you need it.
